- SYSTEM: 5-hydroxytryptamine receptor 2A (Homo sapiens)
- Sequence (P28223 whole entry): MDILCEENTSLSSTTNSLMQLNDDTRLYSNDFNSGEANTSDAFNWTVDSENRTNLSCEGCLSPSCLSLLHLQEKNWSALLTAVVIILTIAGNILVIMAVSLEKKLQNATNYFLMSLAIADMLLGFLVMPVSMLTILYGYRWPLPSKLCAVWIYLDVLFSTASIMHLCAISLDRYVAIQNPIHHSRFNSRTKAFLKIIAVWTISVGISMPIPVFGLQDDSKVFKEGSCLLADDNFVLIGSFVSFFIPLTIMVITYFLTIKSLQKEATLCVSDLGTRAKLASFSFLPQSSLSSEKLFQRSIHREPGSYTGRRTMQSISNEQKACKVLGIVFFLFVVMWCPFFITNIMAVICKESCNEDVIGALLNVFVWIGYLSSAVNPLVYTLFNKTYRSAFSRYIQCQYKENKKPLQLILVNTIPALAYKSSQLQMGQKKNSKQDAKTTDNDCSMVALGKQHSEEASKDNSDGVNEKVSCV
- EXPERIMENTAL_DETAILS: biochemical
- Type: cell-based, CHO-K1
pKi: −log10 of the molar value.
ENDPOINT_NAME: pKi

Examples with their reported pKi follow.
O=S(=O)(NCCCN1CCC(c2noc3cc(F)ccc23)CC1)c1ccc2ccccc2c1; 8.55
O=S(=O)(NCCCN1CCN(c2nsc3ccccc23)CC1)c1ccc(OC(F)(F)F)cc1; 8.02
Cc1cccc(S(=O)(=O)NCCCCN2CCC(c3noc4cc(F)ccc34)CC2)c1; 8.68

(P) O=S(=O)(NCCCN1CCC(c2noc3cc(F)ccc23)CC1)c1cc2ccccc2s1
(Q) O=S(=O)(NCCCN1CCN(c2noc3ccccc23)CC1)c1cccc2scnc12
Problem: When P and Q are compared, which has the higher number for pKi? Pick one; state its label.
Solution: P
